# method notes: Single-dose oral pharmacokinetics of CBD in healthy dogs
# Assay type: in vivo
# reported conditions: dog, serum, single oral dose 2 mg/kg total CBD/CBDA (1 mg/kg CBD and 1 mg/kg CBDA), read-out: mean maximum CBD concentration (Cmax)
observed property: Cmax (ng/mL)
Field: numeric (ng/mL). Do not append units.

Look at this molecule and give its reported Cmax. C=C(C)[C@@H]1CCC(C)=C[C@H]1c1c(O)cc(CCCCC)cc1O [CBD, cannabidiol]
301

---

# method notes: Single-dose oral pharmacokinetics of CBD in healthy cats
# Format: in vivo
# reported conditions: serum, single oral dose 2 mg/kg total CBD/CBDA, read-out: time to maximal concentration (Tmax)
observed property: Tmax (h)
Lab book: enter the figure in h, no units written.

Consider the compound shown here: C=C(C)[C@@H]1CCC(C)=C[C@H]1c1c(O)cc(CCCCC)cc1O [CBD, cannabidiol] What is its recorded Tmax?
2
